Origin of values: patent EP3995502A1

# METHOD NOTES: in vitro
# CONDITION DESCRIPTION: human, liver microsomes
MEASURED PROPERTY: half-life

Request: Which measured half-life value corresponds to "O=C(O)Cc1ccccc1Nc1c(Cl)cccc1Cl" ?
Result: < 30 min

---

Give EC50 for every item shown.
# System: T. brucei (strain s427 of T. b. brucei)
# METHOD NOTES: In vitro trypanocidal activity, sensitive strain s427
# Type: cell-based
# CONDITION DESCRIPTION: Trypanosoma brucei; strain s427 of T. b. brucei; mean ± standard deviation of 3 independent experiments; read-out: EC50 (µM) T. brucei
Numbers only, in µM.

Request: Need EC50 of "Cc1cc(O)ccc1C(=O)CCCCCCCCCCCCCCC[P+](c1ccccc1)(c1ccccc1)c1ccccn1.[Br-]" , thanks.
Result: 0.107

Request: Which value of EC50 has been reported for "Cc1cc(O)ccc1C(=O)CCCCCCCCCCCCCCC[P+](c1ccccc1)(c1ccccc1)c1ccccc1.[Br-]" in the records?
Result: 0.043

---
Request: Give its EC50 value. Item: "N=C(N)c1ccc(OCCCCCOc2ccc(C(=N)N)cc2)cc1"
Result: 0.0033

---

# METHOD NOTES: in vitro
# CONDITION DESCRIPTION: human, liver S9 fraction
MEASURED PROPERTY: half-life

Request: half-life for "O=C(O)Cc1ccccc1Nc1c(Cl)cccc1Cl" ?
Result: < 30 min
